Catalogue of binding signal values
TARGET_UNDER_TEST: GST-NbGlk1(82-244) (Nicotiana benthamiana)
Chain: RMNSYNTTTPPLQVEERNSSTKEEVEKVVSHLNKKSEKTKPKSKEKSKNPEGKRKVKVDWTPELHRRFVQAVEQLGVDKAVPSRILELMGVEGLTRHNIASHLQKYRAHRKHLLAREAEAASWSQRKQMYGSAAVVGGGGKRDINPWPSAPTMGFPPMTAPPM
ASSAY_SUMMARY: protein-binding microarray; NbGlk1 is a Golden2-like transcription factor of Nicotiana benthamiana; high values mean tight binding
PROTOCOL_CONDITIONS: protein: recombinant; tags: GST (pTH6838); dsDNA, one strand shown
The full ranking holds about 16,000 sequences; the median of “e-score” is about -0.044, and the highest 2% start at about 0.38. The full list was thinned out, with the highest values kept by preference.
Please respond with the number in E-score and leave the unit unwritten.

ATATCCCA; 0.371

Input line: Could you share which binding signal value was measured for ATCCTGGA ?
Output line: 0.296

Input line: Could you share which binding signal value was measured for AATCTGGG ?
Output line: 0.428

Input line: Could you share which binding signal value was measured for ATACAGAT ?
Output line: 0.232

Input line: Could you share which binding signal value was measured for ATGAGATA ?
Output line: 0.209

Input line: Could you share which binding signal value was measured for AATCAGGG ?
Output line: 0.313

Input line: Could you share which binding signal value was measured for ATATCGAG ?
Output line: 0.296

Input line: Could you share which binding signal value was measured for AATTACGT ?
Output line: 0.26

Input line: Could you share which binding signal value was measured for AGGAAGAT ?
Output line: 0.276

Input line: Could you share which binding signal value was measured for AATCTGGC ?
Output line: 0.416

Input line: Could you share which binding signal value was measured for ATATTCAC ?
Output line: 0.208

Input line: Could you share which binding signal value was measured for ATCTCAGC ?
Output line: 0.22

Input line: Could you share which binding signal value was measured for ATATCCAT ?
Output line: 0.43

FYI, the data here is from paper PMC5836133.
